- targetSystem: neutrophil collagenase (MMP-8) (Homo sapiens, UniProt P22894)
- Construct: enzymatic activity of the catalytic domains of human stromelysin and of neutrophil collagenase
- Sequence (P22894 100-262 limits assumed): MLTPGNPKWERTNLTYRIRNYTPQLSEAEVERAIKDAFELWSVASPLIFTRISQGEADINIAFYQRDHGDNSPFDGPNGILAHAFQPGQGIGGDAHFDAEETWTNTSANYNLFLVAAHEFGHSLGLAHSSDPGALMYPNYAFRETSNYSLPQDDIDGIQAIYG
- experiment: Enzymatic activity of the catalytic domain of neutrophil collagenase (fluorogenic substrate)
- statedConditions: pH=6.5, 15 min preincubation, fluorescence 328 nm (ex)/393 nm (em), read-out: Neutr. collagenase IC50
- Protocol: Preparation and determination of the enzymatic activity of the catalytic domains of human stromelysin and of neutrophil collagenase: The enzymes stromelysin (MMP-3) and neutrophil collagenase (MMP-8) were prepared according to Ye et al. (Biochemistry; 31 (1992) pages 11231–11235). […] After addition of 10 μl of a 10% strength (v/v) aqueous dimethyl sulfoxide solution which contains 1 mmol/L of the substrate, the enzyme reaction is monitored by fluorescence spectroscopy (328 nm (ex)/393 nm(em)). […]
pIC50: −log10 of the molar value.
resultType: pIC50

>>> readoutvalue("O=C(O)[C@@H](Cc1csc2ccccc12)NS(=O)(=O)c1ccc(-c2ccc(Cl)cc2)cc1")
7.22
>>> readoutvalue("O=C(O)[C@@H](Cc1c[nH]c2ccccc12)NS(=O)(=O)c1ccc(-n2nccn2)cc1")
7.00
>>> readoutvalue("O=C(O)[C@@H](CCc1ccccc1)NS(=O)(=O)c1ccc(-c2ccc(Cl)cc2)cc1")
7.40
>>> readoutvalue("Br.CN(C)c1ccc(-c2ccc(S(=O)(=O)N[C@@H](CC(=O)O)C(=O)O)cc2)cc1")
8.70
>>> readoutvalue("NC(=O)CC[C@@H](NS(=O)(=O)c1ccc(-c2ccccc2)cc1)C(=O)O")
7.70
>>> readoutvalue("O=C(c1ccccc1)c1ccc(C[C@@H](NS(=O)(=O)c2ccc(-c3ccc(Cl)cc3)cc2)C(=O)O)cc1")
6.22
>>> readoutvalue("O=C(O)C(NS(=O)(=O)c1ccc(-c2ccc(Cl)cc2)cc1)C(O)c1cccs1 (stereo not drawn)")
8.00
>>> readoutvalue("NC(=O)CC[C@H](NC(=O)CC[C@H](NS(=O)(=O)c1ccc(-c2ccccc2)cc1)C(=O)O)C(=O)O")
7.70
>>> readoutvalue("O=C(O)[C@@H](NS(=O)(=O)c1ccc(Oc2ccccc2)cc1)[C@@H](O)c1ccc2c(c1)OCO2 (racemic)")
8.00
>>> readoutvalue("O=C(CC[C@H](NS(=O)(=O)c1ccc(-c2ccccc2)cc1)C(=O)O)Nc1ccc(F)c(Cl)c1")
7.70
>>> readoutvalue("CSCC[C@@H](NS(=O)(=O)c1ccc(-c2ccc(N(C)C)cc2)cc1)C(=O)O")
8.52
>>> readoutvalue("O=C(CCC(NS(=O)(=O)c1ccc(-c2ccc(Cl)cc2)cc1)C(=O)O)Nc1ccccc1 (racemic)")
8.40
>>> readoutvalue("O=C(O)[C@H](Cc1cn(S(=O)(=O)c2ccc(Oc3ccccc3)cc2)cn1)NS(=O)(=O)c1ccc(Oc2ccccc2)cc1")
7.30
>>> readoutvalue("O=C(O)[C@@H](CO)NS(=O)(=O)c1ccc(-c2ccc(Cl)cc2)cc1")
7.40
>>> readoutvalue("O=C(O)C(CSC1=NCCS1)NS(=O)(=O)c1ccc(-c2ccc(Cl)cc2)cc1 (racemic)")
7.30
>>> readoutvalue("O=C(O)C1CCCCN1S(=O)(=O)c1ccc(-c2ccccc2)cc1 (racemic)")
7.40
>>> readoutvalue("CSCC[C@H](NC(=O)CC[C@H](NS(=O)(=O)c1ccc(-c2ccccc2)cc1)C(=O)O)C(=O)O")
8.22
>>> readoutvalue("CCN(C(=O)CC[C@H](NS(=O)(=O)c1ccc(-c2ccccc2)cc1)C(=O)O)c1ccccc1")
7.52
>>> readoutvalue("O=C(CC[C@H](NS(=O)(=O)c1ccc(-c2ccccc2)cc1)C(=O)O)Nc1ccncc1")
7.52
>>> readoutvalue("NC(=O)C[C@@H](NS(=O)(=O)c1ccc(-c2ccc(Cl)cc2)cc1)C(=O)O")
8.00
>>> readoutvalue("O=C(CC[C@H](NS(=O)(=O)c1ccc(-c2ccccc2)cc1)C(=O)O)Nc1ccccc1Cl")
8.00
>>> readoutvalue("O=C(O)C(NS(=O)(=O)c1ccc(-c2ccc(Cl)cc2)cc1)C(O)c1ccccc1 (stereo not drawn)")
7.70
>>> readoutvalue("O=C(CC[C@H](NS(=O)(=O)c1ccc(-c2ccc(N3CCCC3)cc2)cc1)C(=O)O)Nc1ccc(F)cc1")
8.70
>>> readoutvalue("O=C(O)C(NS(=O)(=O)c1ccc(-c2ccc(Cl)cc2)cc1)c1ccsc1 (racemic)")
7.40
>>> readoutvalue("O=C(O)CC[C@H](NS(=O)(=O)c1ccc(-c2ccccc2)cc1)C(=O)O")
7.70
>>> readoutvalue("O=C(O)C(Cc1cccnc1)NS(=O)(=O)c1ccc(-c2ccc(Cl)cc2)cc1 (racemic)")
8.15
>>> readoutvalue("O=C(O)[C@@H](Cc1c[nH]c2ccccc12)NS(=O)(=O)c1ccc(-c2ccc(Cl)cc2)cc1")
8.05
>>> readoutvalue("O=C(CC[C@H](NS(=O)(=O)c1ccc(-c2ccccc2)cc1)C(=O)O)Nc1ccc(C(F)(F)F)cc1")
7.52
>>> readoutvalue("O=C(O)[C@@H](CCO)NS(=O)(=O)c1ccc(Oc2ccccc2)cc1 (racemic)")
8.00
>>> readoutvalue("O=C(CC[C@H](NS(=O)(=O)c1ccc(-c2ccccc2)cc1)C(=O)O)Nc1ccccc1")
8.40

Values were extracted from patent US7160903B2.
